# System: A/X-31 (A/H3N2)
# Type: cell-based, influenza A virus
# assay_context: read-out: Antiviral activity (EC50) A/X-31
assay_readout: EC50 (µM)
One number for each entry, in µM.

INSERT INTO measurements (compound, recorded_result) VALUES
  ('NC12CC3CC(CC(C3)C1)C2 [Amantadine, amantadine]', 61),
  ('CC(N)C12CC3CC(CC(C3)C1)C2 (centres unmarked) [Rimantadine, rimantadine]', 7);

Take each entry in turn and give its EC50.
1. NC(=O)c1ncn([C@@H]2O[C@H](CO)[C@@H](O)[C@H]2O)n1 [Ribavirin]
2. CCC(CC)O[C@@H]1C=C(C(=O)O)C[C@H](N)[C@H]1NC(C)=O [Oseltamivir carboxylate]
3. CC(=O)N[C@H]1[C@H]([C@H](O)[C@H](O)CO)OC(C(=O)O)=C[C@@H]1N=C(N)N [Zanamivir]

Result block:
[8.8, 0.11, 0.16]
